Target: human DPP1 enzyme (Homo sapiens (Human))
Sequence (P53634 231-394): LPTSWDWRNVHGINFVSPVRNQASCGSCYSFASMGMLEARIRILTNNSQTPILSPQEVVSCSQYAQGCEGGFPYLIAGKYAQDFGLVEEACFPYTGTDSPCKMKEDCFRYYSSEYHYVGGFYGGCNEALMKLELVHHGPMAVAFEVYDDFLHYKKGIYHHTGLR
Sequence (P53634 25-134): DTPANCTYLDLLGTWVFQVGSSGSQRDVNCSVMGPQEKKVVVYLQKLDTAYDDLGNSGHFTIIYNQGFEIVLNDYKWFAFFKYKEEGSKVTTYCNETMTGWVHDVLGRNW
Sequence (P53634 395-463): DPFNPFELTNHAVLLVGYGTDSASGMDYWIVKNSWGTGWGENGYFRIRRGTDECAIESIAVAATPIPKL
Assay: Activity on human recombinant DPP1 isolated enzyme assay (H-Gly-Arg-AMC cleavage, fluorescence)
Format: biochemical
Conditions: 0.35 nM human DPP1, 300 μM H-Gly-Arg-AMC, 30 min pre-incubation at 25° C., pH 5.0; read-out: h DPP1 pIC50 (converted)
Form field: IC50 (one value per entry).

Please review the following examples before continuing.
• COCC1(C(=O)N[C@H](C#N)Cc2ccc(-c3ccc(C#N)cc3)cc2)CNC1 = 1000 to 10000 nM
• COC1(C(=O)NC(C#N)Cc2ncc(-c3ccc(C#N)cc3)cc2F)CNC1 (centres unmarked) = 100 to 1000 nM
• N#Cc1ccc(-c2ccc(C[C@@H](C#N)NC(=O)C3(C(F)F)CNC3)cc2)cc1 = 10 to 100 nM

Query: Would you kindly share the measured IC50 for CCOC1(C(=O)N[C@H](C#N)Cc2ccc(-c3ccc(C#N)cc3)cc2)CNC1 ?
Result: 10 to 100 nM

Query: Try this compound next: COC1(C(=O)N[C@H](C#N)Cc2ccc(-c3ccc(C#N)cc3)cc2)CNC1
Result: 10 to 100 nM

Query: Try this compound next: N#Cc1ccc(-c2ccc(C[C@@H](C#N)NC(=O)C3CN(C4COC4)C3)cc2)cc1
Result: 1000 to 10000 nM

Query: Try this compound next: CN1CC(C(=O)N[C@H](C#N)Cc2ccc(-c3ccc(C#N)cc3)cc2F)(C(F)F)C1
Result: 10 to 100 nM

Query: Try this compound next: CCN1CC(OC)(C(=O)N[C@H](C#N)Cc2ccc(-c3ccc(C#N)cc3)cc2)C1
Result: 100 to 1000 nM
